From: patent US20120129842A1

measuredTarget: full-length proMMP9(1-707) (SEQ ID NO:1) (Homo sapiens, UniProt P14780, R574P)
Construct: made in house; host or cells: HEK293 (proMMP9, secreted); E. coli (MMP3)
Sequence (P14780 20-707 R574P): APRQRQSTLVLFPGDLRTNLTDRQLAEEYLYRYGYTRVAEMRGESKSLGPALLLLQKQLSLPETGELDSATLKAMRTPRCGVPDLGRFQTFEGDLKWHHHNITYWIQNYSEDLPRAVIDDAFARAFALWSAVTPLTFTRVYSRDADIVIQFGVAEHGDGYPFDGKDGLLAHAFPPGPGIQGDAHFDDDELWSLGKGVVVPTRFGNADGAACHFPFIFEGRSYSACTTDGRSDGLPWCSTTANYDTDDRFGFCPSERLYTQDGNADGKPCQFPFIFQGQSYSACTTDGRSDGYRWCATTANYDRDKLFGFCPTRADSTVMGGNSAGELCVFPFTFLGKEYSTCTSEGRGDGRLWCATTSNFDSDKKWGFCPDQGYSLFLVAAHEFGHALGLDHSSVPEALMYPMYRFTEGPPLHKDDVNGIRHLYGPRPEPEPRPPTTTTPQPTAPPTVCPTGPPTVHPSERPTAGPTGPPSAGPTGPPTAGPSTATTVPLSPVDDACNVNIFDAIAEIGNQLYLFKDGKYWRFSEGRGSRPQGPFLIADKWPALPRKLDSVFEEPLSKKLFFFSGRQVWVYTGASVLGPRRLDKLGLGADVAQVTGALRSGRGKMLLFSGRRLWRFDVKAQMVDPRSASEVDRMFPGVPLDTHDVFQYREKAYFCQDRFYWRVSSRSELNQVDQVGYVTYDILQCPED
methodSummary: proMMP9/MMP3 P126 Activation Assay
Format: biochemical
conditionSet: 20 nM proMMP9, 20 nM MMP3, 80 min 37° C.
Method: The reaction volume was 50 μL. […] Reactivity of residual MMP3 towards P-126 substrate was minimal under these conditions.
pIC50: −log10 of the molar value.
measurementType: pIC50

structureassmiles=Cc1nc(CN2CCC(O)CC2)sc1-c1csc(Nc2cc(C(N)=O)ccc2OC(C)C)n1 endpointresult=6.19
structureassmiles=CC(=O)Nc1nc(C)c(-c2csc(Nc3cccc4c3OC(F)(F)O4)n2)s1 endpointresult=5.25
structureassmiles=CCSc1ccc(S(N)(=O)=O)cc1Nc1nc(-c2sc(C)nc2C)cs1 endpointresult=5.59
structureassmiles=COc1ccc(S(N)(=O)=O)cc1Nc1nc(-c2sc(C)nc2C)cs1 endpointresult=5.47
structureassmiles=CCOC(=O)c1ccc(OCC)c(Nc2nc(-c3sc(NC(C)=O)nc3C)cs2)c1 endpointresult=6.32
structureassmiles=Cc1nc(C)c(-c2csc(Nc3cc(S(N)(=O)=O)ccc3OC(C)C)n2)s1 endpointresult=6.74

[1] CCN(CC)c1nc(C)c(-c2csc(Nc3cc(C(N)=O)ccc3OC(C)C)n2)s1
[2] CCOc1ccc(-c2ncco2)cc1Nc1nc(-c2sc(C)nc2C)cs1
## Input Returns the identifier with the smallest measured pIC50 among 1 and 2 . Answer by stating the label of the chosen item.
## Output 2

---

measuredTarget: proMMP9(67-444;ΔFnII) (SEQ ID NO:5) (Homo sapiens, UniProt P14780, DEL216-390)
Construct: start methionine (N); made in house; host or cells: E. coli BL21(DE3) RIL
Sequence (P14780 with tags, fused parts or gaps DEL216-390): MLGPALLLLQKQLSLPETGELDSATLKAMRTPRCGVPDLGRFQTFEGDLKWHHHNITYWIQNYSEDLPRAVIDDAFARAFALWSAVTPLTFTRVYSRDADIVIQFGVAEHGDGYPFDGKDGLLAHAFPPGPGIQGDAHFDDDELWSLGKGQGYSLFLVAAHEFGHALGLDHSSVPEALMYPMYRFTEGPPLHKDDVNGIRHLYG
methodSummary: ThermoFluor binding assay with proMMP9(67-444;ΔFnII)
conditionSet: pH 7.0
measurementType: Kd (nM)

Examples with their reported Kd follow.
molecule="Cc1nc(CN2CCCC2)sc1-c1csc(Nc2cc(C(N)=O)ccc2OC(C)C)n1 [Example 130]" measuredtarget="proMMP9(67-444;ΔFnII) (SEQ ID NO:5) (Homo sapiens, UniProt P14780, DEL216-390)" endpointresult=3000
molecule="Cc1nc(N2CCCC2)sc1-c1csc(Nc2cc(C(N)=O)ccc2OC(C)C)n1 [Example 91]" measuredtarget="proMMP9(67-444;ΔFnII) (SEQ ID NO:5) (Homo sapiens, UniProt P14780, DEL216-390)" endpointresult=520

[A] COc1cc(C(N)=O)ccc1Nc1nc(-c2sc(C)nc2C)cs1 [Example 35]
[B] COc1ccncc1Nc1nc(-c2sc(N3CCN(C)CC3)nc2C)cs1 [Example 155]
[C] Cc1nc(C)c(-c2csc(Nc3cc(C#N)ccc3OC(C)C)n2)s1 [Example 72]
[D] CCOC(=O)c1ccc(OCC)c(Nc2nc(-c3sc(NC(C)=O)nc3C)cs2)c1 [Example 83]
[E] Cc1nc(Nc2ccncc2)sc1-c1csc(Nc2cc(C(N)=O)ccc2OC(C)C)n1 [Example 92]
## Input Ascending by Kd, please: list the molecules accordingly. Answer by listing the labels in the requested order.
## Output E, B, D, C, A

[a] Cc1nc(C(=O)N2CCN(C(C)C)CC2)sc1-c1csc(Nc2cc(C(N)=O)ccc2OC(C)C)n1 [Example 103]
[b] CC(=O)Nc1nc(C)c(-c2csc(Nc3cccc4ccccc34)n2)s1 [Example 149]
## Input Thinking about recorded Kd values, which is higher, a or b ? Answer by stating the label of the chosen item.
## Output b
(b: 4400 nM, a: 1000 nM)
